These data points were gathered from patent US20240116985A1.

# tgt: full-length beta-Catenin (Uniprot ID P35222) (Homo sapiens, UniProt P35222)
# Construct: 10 nM full-length beta-Catenin (Uniprot ID P35222)
# Sequence (P35222 whole entry): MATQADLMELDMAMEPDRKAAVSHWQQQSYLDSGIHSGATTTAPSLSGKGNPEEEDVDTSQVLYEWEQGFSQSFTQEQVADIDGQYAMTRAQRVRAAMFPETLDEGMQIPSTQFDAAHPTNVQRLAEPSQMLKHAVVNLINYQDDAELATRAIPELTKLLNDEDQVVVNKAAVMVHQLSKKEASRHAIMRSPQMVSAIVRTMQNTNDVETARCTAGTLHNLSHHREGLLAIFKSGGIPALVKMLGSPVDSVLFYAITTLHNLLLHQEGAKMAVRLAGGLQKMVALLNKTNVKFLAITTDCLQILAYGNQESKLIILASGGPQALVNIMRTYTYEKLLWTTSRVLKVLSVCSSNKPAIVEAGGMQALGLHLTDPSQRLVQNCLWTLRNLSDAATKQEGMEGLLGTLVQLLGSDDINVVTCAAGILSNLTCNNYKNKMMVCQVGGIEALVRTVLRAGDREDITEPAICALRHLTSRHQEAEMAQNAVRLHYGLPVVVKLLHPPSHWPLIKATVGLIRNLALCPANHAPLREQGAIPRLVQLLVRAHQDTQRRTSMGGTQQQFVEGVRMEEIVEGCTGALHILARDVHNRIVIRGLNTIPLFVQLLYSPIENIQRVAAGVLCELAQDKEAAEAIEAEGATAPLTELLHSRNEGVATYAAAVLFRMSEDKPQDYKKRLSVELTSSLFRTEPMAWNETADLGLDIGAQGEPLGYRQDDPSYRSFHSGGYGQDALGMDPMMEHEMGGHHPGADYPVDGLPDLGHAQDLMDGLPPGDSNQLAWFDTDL
# assay-method-text: Fluorescence polarization IC50 (beta-catenin / 5FAM-TCF4 10-53 competition)
# Assay type: binding
# condition-notes: fluorescence polarization; read-out: beta-Catenin FP IC50
endpoint-name: log10 IC50 (log10 of the value in nM)
Could you please treat all values as log10 of IC50 in nM?

For orientation, consider the following solved cases.
CC(=O)N1CCC[C@]12CC=CCCCC1(CCCC=CCCCCCC[C@@](C)(C(=O)N[C@@H](Cc3ccccc3)C(=O)N[C@@H](Cc3csc4ccccc34)C(=O)N[C@@H](CCC(N)=O)C(N)=O)NC(=O)[C@H](CCO)NC(=O)[C@H](Cc3ccccc3)NC(=O)[C@H](C)NC(=O)[C@H](C)NC(=O)[C@H](CCC(=O)O)NC(=O)[C@H](CC(=O)O)NC1=O)NC(=O)[C@H](CC(N)=O)NC(=O)[C@H](CC(=O)O)NC2=O (some centres unmarked) [I-1535] = 1.86
CC(=O)N1CCC[C@]12CC=CCCCC1(CCCC=CCCCOC(=O)N3CC[C@@](C(=O)N[C@@H](Cc4ccccc4)C(=O)N[C@@H](Cc4csc5ccccc45)C(=O)N[C@@H](CCC(N)=O)C(N)=O)(C3)NC(=O)[C@H](CC(C)C)NC(=O)[C@H](Cc3ccccc3)NC(=O)[C@H](C)NC(=O)[C@H](CCCCNC(C)C)NC(=O)[C@H](CCCCN)NC(=O)[C@H](CC(=O)O)NC1=O)NC(=O)[C@H](CC1CCCCC1)NC(=O)[C@H](CC(N)=O)NC2=O (some centres unmarked) [I-2346] = 2.63

Problem: Looking for the measured log10 IC50 of CC[C@@H]1NC(=O)[C@H](Cc2ccccc2)NC(=O)[C@H](C)NC(=O)C(C)(C)NC(=O)[C@H](Cc2cccc(C(=O)O)c2)NC(=O)[C@H](CC(=O)O)NC(=O)C2(CCCC=CCCCOC(=O)N3CC[C@@](C(=O)N[C@@H](Cc4ccsc4)C(=O)N[C@@H](Cc4csc5ccccc45)C(=O)N[C@@H](CCC(=O)N4CCOCC4)C(N)=O)(C3)NC1=O)CCCC=CC[C@]1(CCCN1C(C)=O)C(=O)N[C@@H](CC(=O)O)C(=O)N[C@@H](CC(C)(C)C)C(=O)N2 (some centres unmarked) , can you help?
Result: 0.85

Problem: Could you tell me which log10 IC50 is on file for CCCC[C@@H]1NC(=O)[C@H](Cc2ccccc2)NC(=O)[C@H](C)NC(=O)C(C)(C)NC(=O)[C@H](Cc2cccc(C(=O)O)c2)NC(=O)[C@H](CC(=O)O)NC(=O)C2(CCCC=CCCCOC(=O)N3CC[C@@](C(=O)N[C@@H](Cc4ccsc4)C(=O)N[C@@H](Cc4csc5ccccc45)C(=O)N[C@@H](CCC(=O)N4CCOCC4)C(N)=O)(C3)NC1=O)CCCC=CC[C@]1(CCCN1C(C)=O)C(=O)N[C@@H](CC(=O)O)C(=O)N[C@@H](CC(C)(C)C)C(=O)N2 (some centres unmarked) ?
Result: 1.00

Problem: Quick one: log10 IC50 of CC(C)C[C@@H]1NC(=O)[C@H](Cc2ccccc2)NC(=O)[C@H](C)NC(=O)[C@H](C)NC(=O)[C@H](CN(CC(=O)O)CC(F)(F)F)NC(=O)[C@H](CC(=O)O)NC(=O)C2(CCCC=CCCCOC(=O)N3CC[C@@](C(=O)N[C@@H](Cc4ccsc4)C(=O)N[C@@H](Cc4csc5ccccc45)C(=O)N[C@@H](CCC(N)=O)C(N)=O)(C3)NC1=O)CCCC=CCS(=O)(=O)N1CCC[C@@H]1C(=O)N[C@@H](CC(=O)O)C(=O)N[C@@H](CC(C)(C)C)C(=O)N2 (some centres unmarked) ?
Result: 2.42
